# Study target: HIV-1 92UG005 Env (clade D pseudovirus) (HIV-1)
# Assay text: cell-based or functional assay
Assay metric: IC50 (µg/mL), pseudovirus neutralization

Request: Fill blank: measured IC50 (µg/mL), pseudovirus neutralization of the binder 1496_C09 (PG9) (TCN-109) (antibody, V domains shown) VH: QRLVESGGGVVQPGSSLRLSCAASGFDFSRQGMHWVRQAPGQGLEWVAFIKYDGSEKYHADSVWGRLSISRDNSKDTLYLQMNSLRVEDTATYFCVREAGGPDYRNGYNYYDFYDGYYNYHYMDVWGKGTTVTVSS VL: QSALTQPASVSGSPGQSITISCNGTSNDVGGYESVSWYQQHPGKAPKVVIYDVSKRPSGVSNRFSGSKSGNTASLTISGLQAEDEGDYYCKSLTSTRRRVFGTGTKLTVLG is ____.
Response: > 50 µg/mL
